# assay_remarks: A CellTox Green Cytotoxicity Assay to monitor cytotoxicity in HEK293 cells - 16 hour (AID 1224888); also: nearly all actives have a fitted effect of over 35% in size
# condition_context: CellTox Green fluorescence; series mostly up to 76.8 µM
Results filed as inconclusive are left out. Activity calls are given as the source filed them. Calls follow the shape of the dose curve; as a rule, active = well fitted activation curve with a large enough effect in the repeat runs; inconclusive = weak or mixed curves; inactive = flat fitted curve, though single readings scatter.
Lab note: assign the record to one of 1.0 (active), 0.0 (inactive)

These solved cases illustrate the format of a correct answer.
| compound | label_class |
| --- | --- |
| N#CC(c1ccccc1)c1ccccc1 | 0.0 |
| [CH3][Sn]([Cl])([Cl])[Cl] | 0.0 |
| Cc1ccc([N+](=O)[O-])cc1 | 0.0 |
| CC(C)=CC1C(C(=O)OCN2C(=O)C3=C(CCCC3)C2=O)C1(C)C (centres undefined) | 0.0 |
| CC[n+]1c(-c2ccccc2)c2cc(N)ccc2c2ccc(N)cc21 | 0.0 |

Query: # outcome recorded in this test, key = C=CC(Cl)CCl (centres undefined)
Reply: 0.0

###

# experimental_target: Nuclear receptor subfamily 1 group I member 3 (Homo sapiens) (UniProt Q14994)
# Sequence (Q14994 whole entry, looked up): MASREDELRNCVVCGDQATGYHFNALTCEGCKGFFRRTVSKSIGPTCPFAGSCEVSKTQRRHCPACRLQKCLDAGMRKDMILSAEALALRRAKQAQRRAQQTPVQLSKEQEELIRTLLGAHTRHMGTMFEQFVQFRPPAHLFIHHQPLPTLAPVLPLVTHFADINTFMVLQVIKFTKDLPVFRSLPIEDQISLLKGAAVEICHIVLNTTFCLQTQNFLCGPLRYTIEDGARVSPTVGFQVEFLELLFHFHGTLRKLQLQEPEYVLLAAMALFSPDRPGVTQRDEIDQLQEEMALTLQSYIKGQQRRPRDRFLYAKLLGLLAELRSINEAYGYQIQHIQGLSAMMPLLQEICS
# assay_remarks: qHTS assay to identify small molecule agonists of the constitutive androstane receptor (CAR) signaling pathway (AID 1224839);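 also: HepG2 cells stably carrying human CAR and a CYP2B6 luciferase reporter; nearly all actives have a fitted effect of over 15% in size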
# condition_context: HepG2 hCAR CYP2B6-luciferase, agonist mode, 24 h; series mostly up to 92.4 µM
Records with an inconclusive call do not appear. Active and inactive are the calls of the source. Calls follow the shape of the dose curve; as a rule, active = well fitted activation curve with a large enough effect in the repeat runs; inconclusive = weak or mixed curves; inactive = no such curve, though single readings can be large or run the other way.
experimental_endpoint: Potency

Below are worked cases with known answers.
| compound | experimental_target | experimental_endpoint | result |
| --- | --- | --- | --- |
| CCOC(=O)c1ccccc1N | Nuclear receptor subfamily 1 group I member 3 (Homo sapiens) (UniProt Q14994) | Potency | inactive |
| C=CC(Cl)CCl (stereo not drawn) | Nuclear receptor subfamily 1 group I member 3 (Homo sapiens) (UniProt Q14994) | Potency | inactive |
| N#Cc1c(Cl)c(Cl)c(Cl)c(C#N)c1Cl | Nuclear receptor subfamily 1 group I member 3 (Homo sapiens) (UniProt Q14994) | Potency | inactive |
| O=[N+]([O-])c1ccc(Nc2ccccc2)cc1 | Nuclear receptor subfamily 1 group I member 3 (Homo sapiens) (UniProt Q14994) | Potency | inactive |
| CCCCC(C#N)(Cn1cncn1)c1ccc(Cl)cc1 (stereo not drawn) | Nuclear receptor subfamily 1 group I member 3 (Homo sapiens) (UniProt Q14994) | Potency | inactive |

Query: Please look at CCNc1nc(Cl)nc(NC(C)(C)C#N)n1 and tell me its recorded Potency on Nuclear receptor subfamily 1 group I member 3 (Homo sapiens) (UniProt Q14994).
Reply: inactive

Query: Please look at N#Cc1nn(-c2c(Cl)cc(C(F)(F)F)cc2Cl)c(N)c1S(=O)C(F)(F)F (stereo not drawn) and tell me its recorded Potency on Nuclear receptor subfamily 1 group I member 3 (Homo sapiens) (UniProt Q14994).
Reply: inactive

Query: Please look at CC1(C)Cc2cccc(O)c2O1 and tell me its recorded Potency on Nuclear receptor subfamily 1 group I member 3 (Homo sapiens) (UniProt Q14994).
Reply: inactive

###

# assay_remarks: qHTS RealTime-Glo MT Cell Viability Assay in HepG2 cells - 0 hour (AID 1224889); also: nearly all actives have a fitted effect of over 50% in size
# condition_context: RealTime-Glo luminescence; series mostly up to 76.8 µM
Inconclusive results are not listed. Active and inactive are the calls of the source. The call rests on the fitted dose curve; in most records, active means well fitted cell-killing curve with a large enough effect in the repeat runs; inconclusive means weak or mixed curves, or effect the other way; inactive means flat fitted curve, though single readings scatter.
Lab note: assign the record to one of active, inactive

| molecule | label_class |
| --- | --- |
| CC(C)=CC1C(C(=O)OCN2C(=O)C3=C(CCCC3)C2=O)C1(C)C (stereo unspecified) | inactive |
| COc1ccc(C=O)cc1OC | inactive |
| C=C(C)C#N | inactive |

Next item in the queue.
Query: # outcome recorded in this test, key = OCCOCCO
Reply: inactive

###

# experimental_target: Cytochrome P450 2C9 (Homo sapiens) (UniProt P11712)
# Sequence (P11712 whole entry, looked up): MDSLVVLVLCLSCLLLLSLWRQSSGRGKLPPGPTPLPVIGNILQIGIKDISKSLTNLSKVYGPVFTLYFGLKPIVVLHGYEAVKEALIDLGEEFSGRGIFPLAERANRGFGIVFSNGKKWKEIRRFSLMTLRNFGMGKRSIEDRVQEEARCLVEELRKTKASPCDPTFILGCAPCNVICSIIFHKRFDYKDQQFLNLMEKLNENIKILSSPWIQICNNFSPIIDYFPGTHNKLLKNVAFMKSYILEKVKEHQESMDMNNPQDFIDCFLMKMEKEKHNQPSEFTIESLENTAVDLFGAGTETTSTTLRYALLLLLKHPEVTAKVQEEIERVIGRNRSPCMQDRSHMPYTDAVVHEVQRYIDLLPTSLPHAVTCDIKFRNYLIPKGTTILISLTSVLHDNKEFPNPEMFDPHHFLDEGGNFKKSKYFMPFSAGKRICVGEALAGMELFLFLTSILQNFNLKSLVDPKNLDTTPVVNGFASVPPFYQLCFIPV
# assay_remarks: Cytochrome P450 Family 2 Subfamily C Member 9 (CYP2C9) small molecule antagonists: luciferase reporter qHTS assay (AID 1671198); also: nearly all actives have a fitted effect of over 50% in size
# condition_context: P450-Glo CYP2C9 enzyme assay, luciferin luminescence; series mostly up to 115 µM
# From the text: U.S. Tox21 Program National Center for Advancing Translational Sciences [NCATS] U.S. Environmental Protection Agency [EPA] National Institutes of Environmental Health Sciences [NIEHS] National Toxicology Program [NTP] U.S. Food and Drug Administration [FDA] […] The luciferin products formed are detected with a luciferin detection reagent, and the amount of light produced is proportional to CYP activity. […]
Results filed as inconclusive are left out. Activity calls are given as the source filed them. Calls follow the shape of the dose curve; as a rule, active = well fitted inhibition curve with a large enough effect in the repeat runs; inconclusive = weak or mixed curves; inactive = no such curve, though single readings can be large or run the other way.
Lab note: assign the record to one of yes (1) for active, no (0) for inactive

These solved cases illustrate the format of a correct answer.
| compound | label_class |
| --- | --- |
| O=NN1CCOCC1 | no (0) |
| ClCc1ccccn1 | no (0) |

Query: # outcome recorded in this test, key = Clc1ccccc1-c1nnc(-c2ccccc2Cl)nn1
Reply: no (0)

Query: # outcome recorded in this test, key = CNC(=S)S
Reply: yes (1)

Query: # outcome recorded in this test, key = CCNCC
Reply: no (0)

Query: # outcome recorded in this test, key = ClCC(Cl)CCl
Reply: no (0)

Query: # outcome recorded in this test, key = OCCOCCO
Reply: no (0)

Query: # outcome recorded in this test, key = CCCCOCC1CO1 (stereo unspecified)
Reply: no (0)

Query: # outcome recorded in this test, key = [CH3][Sn]([Cl])([Cl])[Cl]
Reply: no (0)

Query: # outcome recorded in this test, key = Cc1ccc(N=CN(C)C=Nc2ccc(C)cc2C)c(C)c1
Reply: no (0)

Query: # outcome recorded in this test, key = CC(C)Nc1nc(Cl)nc(NC(C)C)n1
Reply: no (0)

Query: # outcome recorded in this test, key = CC1=C(C(=O)Nc2ccccc2)SCCO1
Reply: yes (1)

Query: # outcome recorded in this test, key = Clc1cccc(C(Cl)(Cl)Cl)n1
Reply: no (0)

Query: # outcome recorded in this test, key = O=[N+]([O-])/N=C1\NCCN1Cc1ccc(Cl)nc1
Reply: no (0)

Query: # outcome recorded in this test, key = CCOC(=O)c1ccccc1N
Reply: no (0)

Query: # outcome recorded in this test, key = CC(C)CON=O
Reply: no (0)

###

# assay_remarks: qHTS RealTime-Glo MT Cell Viability Assay in HepG2 cells - 24 hour (AID 1224867); also: nearly all actives have a fitted effect of over 50% in size
# condition_context: RealTime-Glo luminescence; series mostly up to 76.8 µM
Results filed as inconclusive are left out. Activity calls are given as the source filed them. Calls come from the whole dose curve; as a rule, active = well fitted cell-killing curve with a large enough effect in the repeat runs; inconclusive = weak or mixed curves; inactive = flat fitted curve, though single readings scatter.
Lab note: assign the record to one of 1 (yes) = active, 0 (no) = inactive

| compound | label_class |
| --- | --- |
| Nc1ccc([N+](=O)[O-])cc1N | 0 (no) |

Query: # outcome recorded in this test, key = Clc1cccc(C(Cl)(Cl)Cl)n1
Reply: 0 (no)

###

# assay_remarks: A CellTox Green Cytotoxicity Assay to monitor cytotoxicity in HepG2 cells - 40 hour (AID 1224879); also: nearly all actives have a fitted effect of over 40% in size
# condition_context: CellTox Green fluorescence; series mostly up to 76.8 µM
Records with an inconclusive call do not appear. Active and inactive are the calls of the source. Calls follow the shape of the dose curve; as a rule, active = well fitted activation curve with a large enough effect in the repeat runs; inconclusive = weak or mixed curves; inactive = flat fitted curve, though single readings scatter.
Lab note: assign the record to one of true (1) for active, false (0) for inactive

| compound | label_class |
| --- | --- |
| CC(C)=CC1C(C(=O)OCc2cccc(Oc3ccccc3)c2)C1(C)C (stereo not given) | false (0) |

Query: # outcome recorded in this test, key = CCOP(=O)(OCC)OCC
Reply: false (0)

Query: # outcome recorded in this test, key = C=CC(=O)OCC(CC)(COC(=O)C=C)COC(=O)C=C
Reply: true (1)

Query: # outcome recorded in this test, key = CC1CC(=O)O1 (stereo not given)
Reply: false (0)

Query: # outcome recorded in this test, key = O=C1CCCO1
Reply: false (0)

Query: # outcome recorded in this test, key = CCOP(=S)(OCC)OP(=S)(OCC)OCC
Reply: false (0)

Query: # outcome recorded in this test, key = CCNCC
Reply: false (0)

Query: # outcome recorded in this test, key = COP(=O)(NC(C)=O)SC (stereo not given)
Reply: false (0)

Query: # outcome recorded in this test, key = ClCC(Cl)CCl
Reply: false (0)

Query: # outcome recorded in this test, key = CCC/C=N/O
Reply: false (0)

Query: # outcome recorded in this test, key = CC(C)(c1ccc(OCC2CO2)cc1)c1ccc(OCC2CO2)cc1 (stereo not given)
Reply: false (0)

Query: # outcome recorded in this test, key = CCCCCCCCCc1ccc(O)cc1
Reply: true (1)

Query: # outcome recorded in this test, key = CC(O)CN(CC(C)O)CC(C)O (stereo not given)
Reply: false (0)

Query: # outcome recorded in this test, key = Clc1cccc(Cl)c1
Reply: false (0)

Query: # outcome recorded in this test, key = O=[N+]([O-])c1ccc(Nc2ccccc2)cc1
Reply: false (0)

Query: # outcome recorded in this test, key = ClC(Cl)=C(Cl)C(Cl)=C(Cl)Cl
Reply: false (0)

Query: # outcome recorded in this test, key = CCCCSP(=O)(SCCCC)SCCCC
Reply: false (0)

Query: # outcome recorded in this test, key = Cc1cccc(N=Nc2ccc(N(C)C)cc2)c1
Reply: false (0)

Query: # outcome recorded in this test, key = O=[N+]([O-])/N=C1\NCCN1Cc1ccc(Cl)nc1
Reply: false (0)

Query: # outcome recorded in this test, key = N#CC(c1ccccc1)c1ccccc1
Reply: false (0)

Values were extracted from PubChem BioAssay (Tox21).
